# Tested on: NCI-H322M lung
# Protocol Text: NCI-60 one-dose screen, 48 h (100 = growth as untreated, 0 = no growth, -100 = all killed)
# Experimental Setup: 10 µM
Compounds without any hit were thinned out: in the full panel of roughly 83,000, 20% have a hit.
Label y when growth < 60%; otherwise n.

For `Cc1ccc2c(c1)C(=O)/C(=C/c1ccc([N+](=O)[O-])cc1)S2` , is the recorded growth below the cut-off of 60%?
n

For `O=C1NC(=S)S/C1=C\c1cn(-c2ccccc2)nc1-c1ccc([N+](=O)[O-])cc1` , is the recorded growth below the cut-off of 60%?
y

For `Cc1ccc(-c2nc(C#N)c(S(=O)(=O)N3CCN(S(C)(=O)=O)CC3)o2)cc1` , is the recorded growth below the cut-off of 60%?
n

For `Cc1cc(N=C2NC(=O)/C(=C/c3cc(C(C)(C)C)c(O)c(C(C)(C)C)c3)S2)n[nH]1` , is the recorded growth below the cut-off of 60%?
y

For `COc1ccc(Cc2nn(CC(=O)N/N=C/c3ccc(Br)cc3)c(=O)c3c(C)noc23)cc1` , is the recorded growth below the cut-off of 60%?
n
